Tested on: active caspase-3
Assay method text: Caspase-3 enzyme assay (ELISA) in Hep3B
Type: cell-based, human
Test context: Hep3B cells
Measured Caspase-3 Conc., listed per entry.
Express your answer in pg/mL, writing the number without its unit.

For orientation, consider the following solved cases.
Compound	Measurement target	Caspase-3 Conc. [pg/mL]
COc1ccc(C=NNC(=O)c2cn3c4c(c(N5CCN(C)CC5)c(F)cc4c2=O)OCC3C)cc1 (stereo not shown)	active caspase-3	407.3
C[C@H]1COc2c(N3CCN(C)CC3)c(F)cc3c(=O)c(C(=O)O)cn1c23 [Levofloxacin, reference compound]	active caspase-3	391.7
COc1cc([C@@H]2c3cc4c(cc3[C@@H](O[C@@H]3O[C@@H]5CO[C@@H](C)O[C@H]5[C@H](O)[C@H]3O)[C@H]3COC(=O)[C@H]23)OCO4)cc(OC)c1O [Etoposide, reference compound]	active caspase-3	460

Switching to the query record.
Req: Look up and state reported Caspase-3 Conc. for CCOC(=O)CC(C)=NNC(=O)c1cn2c3c(c(N4CCN(C)CC4)c(F)cc3c1=O)OCC2C (stereo not shown)
Resp: 375.8

====

Tested on: human liver cancer (Hep3B) cell line
Assay method text: MTT cytotoxicity assay, Hep3B
Test context: Homo sapiens, Hep3B, 48 h, read-out: Cytotoxicity IC50 Hep3B
IC50 strictly less than 20 µM = fulfilled. Otherwise not fulfilled.

Compound	Discrete label
CC1COc2c(N3CCN(C)CC3)c(F)cc3c(=O)c(C(=O)NNC(N)=S)cn1c23 (stereo not shown)	not fulfilled

Req: I'd appreciate it if you could check whether COc1ccc(C=NNC(=O)c2cn3c4c(c(N5CCN(C)CC5)c(F)cc4c2=O)OCC3C)cc1 (stereo not shown) has IC50 smaller than 20 µM.
Resp: fulfilled

Req: IC50 under 20 µM? Item: COc1cc([C@@H]2c3cc4c(cc3[C@@H](O[C@@H]3O[C@@H]5CO[C@@H](C)O[C@H]5[C@H](O)[C@H]3O)[C@H]3COC(=O)[C@H]23)OCO4)cc(OC)c1O [Etoposide, reference compound]
Resp: not fulfilled

Req: Is IC50 strictly under 20 µM for the entry CC1COc2c(N3CCN(C)CC3)c(F)cc3c(=O)c(C(=O)NN=C4C(=O)Nc5ccccc54)cn1c23 (stereo not shown) ?
Resp: fulfilled

Req: Just wondering, is IC50 of CC1COc2c(N3CCN(C)CC3)c(F)cc3c(=O)c(C(=O)NN=Cc4ccc(Cl)cc4)cn1c23 (stereo not shown) below 20 µM?
Resp: not fulfilled

Req: Consider the compound CC1COc2c(N3CCN(C)CC3)c(F)cc3c(=O)c(C(=O)NN=C4C(=O)Nc5ccc(Br)cc54)cn1c23 (stereo not shown) . Is its IC50 strictly less than 20 µM?
Resp: fulfilled

Req: Is IC50 strictly under 20 µM for the entry CC1COc2c(N3CCN(C)CC3)c(F)cc3c(=O)c(C(=O)N4CCOCC4)cn1c23 (stereo not shown) [Compound 13b] ?
Resp: fulfilled

====

Test system: Hep3B cells
Assay method text: Annexin V-FITC/propidium iodide apoptosis assay
Test context: treated at IC50
Measured quantity: Early apoptosis % (%)
Enter your answer as a number in %; do not include the unit.

Some compounds with recorded Early apoptosis %:
Compound	Value measured
COc1ccc(C=NNC(=O)c2cn3c4c(c(N5CCN(C)CC5)c(F)cc4c2=O)OCC3C)cc1 (stereo not shown)	11.54
COc1cc([C@@H]2c3cc4c(cc3[C@@H](O[C@@H]3O[C@@H]5CO[C@@H](C)O[C@H]5[C@H](O)[C@H]3O)[C@H]3COC(=O)[C@H]23)OCO4)cc(OC)c1O [Etoposide, reference compound]	3.41
C[C@H]1COc2c(N3CCN(C)CC3)c(F)cc3c(=O)c(C(=O)O)cn1c23 [Levofloxacin, reference compound]	0.95

Req: Dear colleague, please send me the reported Early apoptosis % for CCOC(=O)CC(C)=NNC(=O)c1cn2c3c(c(N4CCN(C)CC4)c(F)cc3c1=O)OCC2C (stereo not shown) when you can.
Resp: 9.54
